Target: Muscarinic acetylcholine receptor M1 (Rattus norvegicus)
Sequence (P08482 whole entry): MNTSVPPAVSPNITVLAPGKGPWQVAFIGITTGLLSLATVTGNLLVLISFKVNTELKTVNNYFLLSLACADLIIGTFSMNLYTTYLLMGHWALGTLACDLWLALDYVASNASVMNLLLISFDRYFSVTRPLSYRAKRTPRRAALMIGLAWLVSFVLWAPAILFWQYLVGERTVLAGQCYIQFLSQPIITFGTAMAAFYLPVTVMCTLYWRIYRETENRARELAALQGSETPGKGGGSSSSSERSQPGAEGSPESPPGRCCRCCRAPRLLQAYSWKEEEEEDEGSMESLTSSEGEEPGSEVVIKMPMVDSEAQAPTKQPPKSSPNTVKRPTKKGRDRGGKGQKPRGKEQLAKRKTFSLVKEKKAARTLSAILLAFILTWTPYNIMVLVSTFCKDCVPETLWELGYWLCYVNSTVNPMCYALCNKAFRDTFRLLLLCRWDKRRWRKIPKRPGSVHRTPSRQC
Assignment: determine reported Ki for the given compounds.

Lookup: State the measured Ki (Muscarinic acetylcholine receptor M1 (Rattus norvegicus)) of C#CC(C)ON=C1CC2CCC(C1)N2C (stereo unspecified)
Found: 9990 nM

Lookup: Would you please give the reported Ki of C#CCCON=C1CC2CCC(C1)N2C with Muscarinic acetylcholine receptor M1 (Rattus norvegicus)?
Found: 1580 nM

Lookup: Give the observed Ki of C#CCCCON=C1CC2CCC(C1)N2C for Muscarinic acetylcholine receptor M1 (Rattus norvegicus).
Found: 630 nM

Lookup: State Ki (Muscarinic acetylcholine receptor M1 (Rattus norvegicus)) of CC#CCCON=C1CC2CCC(C1)N2C .
Found: 794 nM

Lookup: Report its Ki with Muscarinic acetylcholine receptor M1 (Rattus norvegicus) as the test system: CCC#CCON=C1CC2CCC(C1)N2C
Found: 5010 nM

Lookup: // fetch Ki; item: CC#CCON=C1CCN(C)CC1 ; system: Muscarinic acetylcholine receptor M1 (Rattus norvegicus)
Found: 3980 nM
